Exercise: state measured pIC50 for each of the compounds provided.
Assay: Inhibition of Haemophilus influenzae GlmU
One number for each entry, as −log10 of the molar value.

Query block: Endpoint output: pIC50 of COc1cc(OC)c(S(=O)(=O)N2c3ccccc3CC2C)cc1NC(C)=O (configuration not stated) . Value?
Result block: 5.11

Could you now look at the following compound, please?
Query block: Endpoint output: pIC50 of COc1cc(OC)c(S(=O)(=O)N2c3ccccc3Oc3ccccc32)cc1NC(=O)CCC(=O)O . Value?
Result block: 7.64

###

Experiment: Inhibition of Pseudomonas aeruginosa MurC
Exercise: state measured IC50 for each of the molecules provided.
Give bare numbers, in nM.

Query block: Endpoint output: IC50 of OCC1CCCCN1c1nc(Nc2cc(C3CC3)[nH]n2)c2cn[nH]c2n1 (configuration not stated) . Value?
Result block: 1000

Could you now look at the following molecule, please?
Query block: Endpoint output: IC50 of Cn1nc(Nc2nc(N[C@H](CO)c3ccccc3)nc3[nH]ncc23)cc1C(C)(C)C . Value?
Result block: 1

Data origin: ChEMBL document CHEMBL3352383
